Experimental System: Gal(b1-4)GlcNAc(b1-2)Man(a1-3)[Man(a1-6)]Man(b1-4)GlcNAc(b1-4)GlcNAc
Assay Text: glycan array binding signal (z-score within array); higher = stronger binding
Experimental Parameters: glycan notation: IUPAC condensed, linker removed
Only a selection was taken, and the strongest signals are over-represented in it overall.
Catalogue of glycan array binding signal (z-score) values

Prompt line: So what's the measured glycan array binding signal (z-score) for this one? EULS2 M4 (Oryza sativa) (protein) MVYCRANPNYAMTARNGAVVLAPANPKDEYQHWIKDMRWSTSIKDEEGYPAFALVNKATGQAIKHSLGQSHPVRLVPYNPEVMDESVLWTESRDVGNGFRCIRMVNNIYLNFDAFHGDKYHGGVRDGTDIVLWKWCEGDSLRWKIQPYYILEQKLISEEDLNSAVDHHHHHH
Response line: 7.18
